Tested on: UACC-62
Experiment: NCI tumour cell line growth inhibition, 48 h
Calls of active or inactive are those of the source. Rule as the data show it: active = GI50 up to about 1.1 µM and inactive = higher.
MEASURED_PARAMETER: GI50

Record summary for Fc1cccc(F)c1C1SCc2nc3cc4ccccc4cc3n21 (centres undefined) : reported GI50 = 23.4 µM (inactive)

GI50 recorded for this compound, Cn1c2ccccc2c(=NNc2ccccc2C(=O)O)c2ccccc21 , is 19.5 µM (inactive)

So, O=C(O)c1ccccc1/C=C1\Cc2ccccc2C1=O ? Its GI50 was > 100 µM (inactive)

Entry CC1OC(O[C@H]2C3C=CO[C@@H](OC4OC(CO)C(O)C(O)C4O)C3[C@@]3(COC(=O)/C=C/c4ccccc4)O[C@@H]23)C(O)C(O)C1O (some centres undefined) , GI50 reported as > 100 µM (inactive)

The compound O=C(CCC1CCCCC1)NCc1ccc(C(=O)O)cc1 showed GI50 equal to > 100 µM (inactive)

Looking up Cc1cn(C2CC(N=[N+]=[N-])C(C(=O)O)O2)c(=O)[nH]c1=O (centres undefined) , I see its GI50 listed as > 100 µM (inactive)

Record COC(=O)c1c(CC(Cc2ccc3c(c2)CCCC3)C(=O)OC)ccc2c1CCCC2 (centres undefined) . Reported GI50: > 100 µM (inactive)

GI50 reported for this compound O=[N+]([O-])c1ccc(/C=C/c2csnn2)cc1 : > 100 µM (inactive)

The recorded GI50 for C[C@]12CC[C@H]3[C@@H](CCC4=CC(=O)CC[C@@]43C)[C@@H]1CC[C@@H]2C(=O)Nc1ccc([N+](=O)[O-])c(C(F)(F)F)c1 is 15.3 µM (inactive)
